Origin of the recorded values: ChEMBL document CHEMBL1146339

Experiment: Antioxidant activity in BALB/c mouse BM cells assessed as inhibition of ROS production
Assay type: functional
Settings: Bone marrow cell
# IC25 per entry

[
  {
    "SMILES REPR": "COc1cc(-c2cc(=O)c3ccccc3o2)ccc1O",
    "IC25": "14.5 µM"
  },
  {
    "SMILES REPR": "O=c1c(O)c(-c2cc(O)c(O)c(O)c2)oc2cc(O)cc(O)c12",
    "IC25": "5.2 µM"
  },
  {
    "SMILES REPR": "COc1ccc2c(=O)cc(-c3ccccc3)oc2c1O",
    "IC25": "3.1 µM"
  }
]
